assay: Metabolic stability in human liver microsome assessed as half life at 1 uM measured upto 60 mins in presence of NADPH by LC-MS/MS analysis; assay type: ADME; details: liver microsomes
MEASUREMENT_KIND: half-life at 1 µM (min)

* CC(C)(N)C(=O)N[C@H](COCc1ccccc1)C(=O)N1CCC2=NN(C3CC3)C(=O)[C@]2(Cc2ccccc2)C1 | 11.3

====

assay: Cmax in male mouse at 2 mg/kg, po administered as single dose measured after 4 hrs; type: ADME, organism-based; settings: in vivo
MEASUREMENT_KIND: Cmax (ng/mL)

- CC(C)(N)C(=O)N[C@H](COCc1ccccc1)C(=O)N1CCC2=NN(C3CC3)C(=O)[C@]2(Cc2ccccc2)C1: 125
